For each record, write down the corresponding Ki.
# subject.of.test: α2B receptor (Homo sapiens)
# Construct: host or cells: LM(tk-) cells, line L-NGC-α2B
# Sequence (P18089 whole entry): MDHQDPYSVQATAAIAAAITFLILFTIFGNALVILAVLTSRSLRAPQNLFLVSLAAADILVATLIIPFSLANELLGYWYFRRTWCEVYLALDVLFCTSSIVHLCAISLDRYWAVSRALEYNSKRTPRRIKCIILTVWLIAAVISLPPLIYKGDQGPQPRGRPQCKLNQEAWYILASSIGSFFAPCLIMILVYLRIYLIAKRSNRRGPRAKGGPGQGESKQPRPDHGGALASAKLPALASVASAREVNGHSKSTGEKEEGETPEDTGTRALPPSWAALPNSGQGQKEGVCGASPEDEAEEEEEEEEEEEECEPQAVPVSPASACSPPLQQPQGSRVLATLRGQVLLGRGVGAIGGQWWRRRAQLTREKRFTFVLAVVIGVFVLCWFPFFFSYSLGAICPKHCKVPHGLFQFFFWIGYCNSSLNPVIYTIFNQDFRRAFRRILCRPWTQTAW
# assay.name: Competition binding, [3H]rauwolscine, human α2B receptor
# setup.conditions: pKi alpha-2 2b
Where a name gives a salt, the structure may show the parent alone.
Give your result in µM as a bare value.

Quick check: Ki of COC(=O)C1=C(C)N(C)C(C)=C(C(=O)OCCCN2CCC(c3ccccc3)(c3ccccc3)CC2)C1c1ccc([N+](=O)[O-])cc1 (stereo not drawn) [Example 92, hydrochloride hydrate] ? 0.724

Quick check: Ki of CCC1=C(C(=O)NCCCN2CCC(c3ccccc3)(c3ccccc3)CC2)C(c2ccc([N+](=O)[O-])cc2)C(C(=O)OC)=C(C)N1 (stereo not drawn) [Example 73] ? 0.676

Quick check: Ki of CC1=C(C#N)C(c2ccc([N+](=O)[O-])cc2)C(C(=O)NCCCN2CCC(c3ccccc3)(c3ccccc3)CC2)=C(C)N1 (stereo not drawn) [Example 37] ? 1.07

Quick check: Ki of COC(=O)C1=C(C)NC(C)=C(C(=O)NCCCN2CCC(c3ccccc3)(c3ccccc3)CC2)C1c1ccc(Cl)c(Cl)c1 (stereo not drawn) [Example 24] ? 1.26

Quick check: Ki of COC(=O)C1=C(C)NC(C)=C(C(=O)NCCCN2CCC(c3ccccc3)(c3ccccc3)CC2)C1c1ccc(Cl)c([N+](=O)[O-])c1 (stereo not drawn) [Example 16] ? 1.82

Quick check: Ki of COC(=O)C1=C(C)NC(C)=C(C(=O)NCCCN2CCC(c3ccccc3)(c3ccccc3)CC2)C1c1ccc(Cl)cc1 (stereo not drawn) [Example 10] ? 3.31

Quick check: Ki of COC(=O)C1=C(C)NC(C)=C(C(=O)NCCCN2CCC(c3ccccc3)(c3ccccc3)CC2)C1c1ccc2ccccc2c1 (stereo not drawn) [Example 22] ? 0.912

Quick check: Ki of CCC1=C(C(N)=O)C(c2ccc([N+](=O)[O-])cc2)C(C(=O)NCCCN2CCC(c3ccc(OC)cc3)(c3ccc(OC)cc3)CC2)=C(CC)N1 (stereo not drawn) [Example 103, hydrochloride] ? 0.741

Quick check: Ki of COC(=O)C1=C(C)NC(C)=C(C(=O)NCCN2CCC(c3ccccc3)(c3ccccc3)CC2)C1c1ccc([N+](=O)[O-])cc1 (stereo not drawn) [Example 52, hydrochloride hemihydrate] ? 0.794

Quick check: Ki of COC(=O)C1=C(C)NC(C)=C(C(=O)NCCCN2CCC(c3ccccc3)(c3ccccc3)CC2)C1c1cc(OC)c(OC)c(OC)c1 (stereo not drawn) [Example 27] ? 1.05

Quick check: Ki of COC(=O)C1=C(C)NC(C)=C(C(=O)NCCCN2CCC(c3ccccc3)(c3ccccc3)CC2)C1c1ccc(C(C)C)cc1 (stereo not drawn) [Example 18] ? 1.62

Quick check: Ki of COC(=O)C1=C(C)NC(C)=C(C(=O)NCCCN2CCC(c3ccccc3)(c3ccccc3)CC2)C1c1ccc(C(F)(F)F)cc1 (stereo not drawn) [Example 1] ? 3.31
